The measured values listed here are drawn from ChEMBL document CHEMBL1140468.

- TARGET: Protein farnesyltransferase (Homo sapiens, UniProt P49354+P49356)
- ASSAY_NAME: Inhibition of FTase by fluorescence spectrometry technique
PARAMETER: IC50 (nM)

Documented IC50 of CN1c2ccccc2C(N2CCN(Cc3cncn3Cc3ccc(C#N)cc3)CC2)c2ccccc2S1(=O)=O (centres undefined) : 45

[I] N#Cc1ccc(Cn2cncc2CN2CCCN(C3c4ccccc4CCc4ccccc43)CC2)cc1
[II] CCCCN1c2ccccc2C(N2CCCN(Cc3cncn3Cc3ccc(C#N)cc3)CC2)c2ccccc2S1(=O)=O (centres undefined)
[III] N#Cc1ccc(Cn2cncc2CN2CCCN(C3c4ccccc4N(CCCN4CCOCC4)S(=O)(=O)c4ccccc43)CC2)cc1 (centres undefined)
Q) Please rank these molecules by IC50 in descending order. Give your ranking as a list of the labels in the requested order.
A) I, II, III
(I: 285 nM, II: 43 nM, III: 17.3 nM)

[I] CN1c2ccccc2C(N2CCCN(Cc3cncn3Cc3ccc(C#N)cc3)CC2)c2ccccc2S1(=O)=O (centres undefined)
[II] N#Cc1ccc(Cn2cncc2CN2CCN(C3c4ccccc4CCc4ccccc43)CC2)cc1
[III] COC(=O)[C@H](Cc1ccccc1)N(C(=O)c1ccccc1)C1CCN(Cc2cncn2Cc2ccc(C#N)cc2)CC1
Q) Hey, can you sort those molecules up there by IC50, smallest first? Give your ranking as a list of the labels in the requested order.
A) III, I, II

[1] CCCN1c2ccccc2C(N2CCCN(Cc3cncn3Cc3ccc(C#N)cc3)CC2)c2ccccc2S1(=O)=O (centres undefined)
[2] N#Cc1ccc(Cn2cncc2CN[C@H](CC(=O)N[C@@H](Cc2ccccc2)C(N)=O)Cc2ccccc2)cc1
Q) From the recorded data, which exceeds the other in IC50: 1 or 2 ? // output: label of the selected item
A) 1
(1: 46.5 nM, 2: 28.5 nM)

====

- Test system: DU-145
- ASSAY_NAME: Antiproliferative activity against DU145 cells by colorimetric MTT assay
- Type: functional, cell-based
- COND: Homo sapiens
pIC50: −log10 of the molar value.
PARAMETER: pIC50

Below are worked cases with known answers.
Documented pIC50 of CN1c2ccccc2C(N2CCCN(Cc3cncn3Cc3ccc(C#N)cc3)CC2)c2ccccc2S1(=O)=O (configuration not stated) : 4.22

Documented pIC50 of CN1c2ccccc2C(N2CCN(Cc3cncn3Cc3ccc(C#N)cc3)CC2)c2ccccc2S1(=O)=O (configuration not stated) : 4.00

Documented pIC50 of N#Cc1ccc(Cn2cncc2CN2CCCN(C3c4ccccc4N(CCCN4CCOCC4)S(=O)(=O)c4ccccc43)CC2)cc1 (configuration not stated) : 4.32

[a] N#Cc1ccc(Cn2cncc2CN2CCCN(C3c4ccccc4CCc4ccccc43)CC2)cc1
[b] CCCCN1c2ccccc2C(N2CCCN(Cc3cncn3Cc3ccc(C#N)cc3)CC2)c2ccccc2S1(=O)=O (configuration not stated)
[c] N#Cc1ccc(Cn2cncc2CN2CCN(C3c4ccccc4CCc4ccccc43)CC2)cc1
Q) Hey, can you sort those compounds up there by pIC50, smallest first? Give your ranking as a list of the labels in the requested order.
A) b, a, c
(b: 4.00, a: 4.29, c: 5.02)
